- test_summary: RP, Waters ACQUITY UPLC HSS T3, 100 × 2.1 mm, 1.8 µm, 30 °C, 0.4 mL/min, estimated dead time 0.55 min; A: water + 0.1% formic acid, pH 3; B: acetonitrile + 0.1% formic acid, pH 3; gradient (min/%B) 0/0 2/0 15/100 22/100 22.1/0 26/0
- assay_conditions: stereoisomer not certain
metric: LC retention time (min)

Before answering, review these 3 worked examples.
# compound, LC retention time / min
records = [
    ("O=c1c(O)c(-c2ccc(O)c(O)c2)oc2cc(O)ccc12", 10.2),
    ("Cc1c(C)c2c(c(C)c1O)CCC(C)(CCCC(C)CCCC(C)CCCC(C)C)O2 (stereo not given)", 15.6),
    ("OC1C(O)C(O)C(O)C(O)C1O (stereo not given)", 0.86),
]

I = OCCc1ccc(O)c(O)c1 [Hydroxytyrosol]
II = O=C(C=CC=Cc1ccc2c(c1)OCO2)N1CCCCC1
So which one has the bigger LC retention time here, I or II ? Return value: the label identifying the chosen record. II

A = CC(C)CC1NC(=O)C2CCCN2C1=O (stereo not given)
B = CCCCCCCCCCCCCCCCCc1cc(O)cc(O)c1
C = COc1cc(C=CC(=O)CC(=O)C=Cc2ccc(O)c(OC)c2)ccc1O
Number of compounds to sort: 3. Sort criterion: LC retention time, ascending. # format: label list in the order the request specifies A, C, B

A = O=C1CC(c2ccc(O)cc2)Oc2cc(O)cc(O)c21 (stereo not given)
B = Cn1c(=O)c2[nH]c(=O)[nH]c2n(C)c1=O
C = OCC1OC(Oc2ccc(O)cc2)C(O)C(O)C1O (stereo not given)
Number of compounds to sort: 3. Sort criterion: LC retention time, ascending. # format: label list in the order the request specifies C, B, A
